Molecular target: T1, monkey Trop2 protein (Sino Biological, #90893-C08H) (monkey, UniProt A0A2K5UE71 27-274)
T1 construct: bought protein; also called monkey Trop2 protein antigen (His tag)
T1 sequence: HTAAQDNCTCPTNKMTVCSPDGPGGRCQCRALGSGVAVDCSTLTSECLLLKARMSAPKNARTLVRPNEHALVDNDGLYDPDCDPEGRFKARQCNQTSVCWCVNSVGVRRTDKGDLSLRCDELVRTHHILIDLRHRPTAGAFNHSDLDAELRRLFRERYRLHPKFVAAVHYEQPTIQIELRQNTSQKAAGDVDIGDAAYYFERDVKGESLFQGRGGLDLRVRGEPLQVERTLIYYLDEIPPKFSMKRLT
Assay: BLI, Octet RED96, AHC sensor
Some binders, each annotated with its measured pKd.
Formally, pKd is defined as -log10 of the concentration c, with c in mol/L.

binder: PR001155 (antibody, human IgG1, kappa, V domains shown, fully human IgG1/kappa; also called antibody No. (18)) VH: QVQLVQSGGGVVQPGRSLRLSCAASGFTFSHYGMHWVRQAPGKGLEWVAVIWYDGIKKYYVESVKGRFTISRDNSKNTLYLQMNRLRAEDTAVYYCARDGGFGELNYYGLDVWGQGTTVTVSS VL: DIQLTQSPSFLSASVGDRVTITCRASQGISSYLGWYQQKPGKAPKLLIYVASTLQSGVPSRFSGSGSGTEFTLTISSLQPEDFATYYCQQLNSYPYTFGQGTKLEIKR
pKd: 8.37

Inquiry: Consider the binder PR001162 (antibody, human IgG1, kappa, V domains shown, fully human IgG1/kappa; also called antibody No. (23)) VH: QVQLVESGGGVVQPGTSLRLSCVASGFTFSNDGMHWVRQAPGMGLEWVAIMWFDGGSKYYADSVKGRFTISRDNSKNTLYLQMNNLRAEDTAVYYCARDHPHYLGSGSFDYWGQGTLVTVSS VL: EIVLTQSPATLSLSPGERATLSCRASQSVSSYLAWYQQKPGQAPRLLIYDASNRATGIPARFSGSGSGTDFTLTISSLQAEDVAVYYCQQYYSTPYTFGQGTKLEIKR and give its measured pKd.
Reply text: 8.44
